- Organism: Equus caballus
- METHOD SUMMARY: Inhibition of equine liver GST assessed as decrease in conjugation of CDNB to GSH at 100 uM preincubated with GSH for 30 mins followed by CDNB addition measured for 3 mins relative to control
# inhibition values compiled below
QUANTITY: inhibition

>>> measured_result("O=C(/C=C/c1cccc(C(F)(F)F)c1)N1CCC=C(Cl)C1=O")
"71%"
>>> measured_result("O=C1C=CCCN1C(=O)/C=C/c1ccc(C(F)(F)F)cc1")
"55.5%"
>>> measured_result("O=C1C=CCCN1C(=O)/C=C/c1cccc(C(F)(F)F)c1")
"53%"
>>> measured_result("COc1cc(/C=C/C(=O)N2CCC=CC2=O)cc(OC)c1OC")
"30.7%"
>>> measured_result("O=C(/C=C/c1ccccc1C(F)(F)F)N1CCC=C(Cl)C1=O")
"40.3%"
>>> measured_result("COc1cc(/C=C/C(=O)N2CCCCC2=O)cc(OC)c1OC")
"15.4%"
>>> measured_result("COc1cc(/C=C/C(=O)N2CCC=C(Cl)C2=O)cc(OC)c1OC")
"30.8%"
>>> measured_result("COc1cc(CCC(=O)N2CCCCC2=O)cc(OC)c1OC [TETRAHYDROPIPLARTINE]")
"0%"
>>> measured_result("O=C1C=CCCN1C(=O)/C=C/c1ccccc1C(F)(F)F")
"31.5%"
>>> measured_result("C/C=C/C(=O)N1CCC=CC1=O")
"8.2%"
>>> measured_result("COc1cc(/C=C/C(=O)C2CCC=CC2=O)cc(OC)c1OC (configuration not stated)")
"50.5%"
>>> measured_result("O=C(/C=C/c1ccc(C(F)(F)F)cc1)N1CCC=C(Cl)C1=O")
"74.7%"

====

- METHOD SUMMARY: Noncompetitive inhibition of equine liver GST using fixed GSH substrate concentration and varying levels of CDNB preincubated with GSH for 30 mins followed by CDNB addition measured for 3 mins by Lineweaver-Burk plot analysis
- Parameters: species or system Equus caballus
pKi: −log10 of the molar value.
QUANTITY: pKi

>>> measured_result("O=C(/C=C/c1ccc(C(F)(F)F)cc1)N1CCC=C(Cl)C1=O")
4.61

====

- METHOD SUMMARY: Competitive inhibition of equine liver GST using varying levels of substrate GSH and fixed CDNB concentration preincubated with GSH for 30 mins followed by CDNB addition measured for 3 mins by Lineweaver-Burk plot analysis
- Set-up: species or system Equus caballus
QUANTITY: Ki

>>> measured_result("O=C(/C=C/c1ccc(C(F)(F)F)cc1)N1CCC=C(Cl)C1=O")
"7.8 µM"
